# TGI per record follows
tested on: NCI-H522 lung; experiment: NCI tumour cell line growth inhibition, 48 h

[[record]]
compound = "N#Cc1cccc(N2C(=O)C3C4C=CC(C3C2=O)C2C(=O)N(c3cccc(C#N)c3)C(=O)C42)c1 (stereo unspecified)"
target = "NCI-H522 lung"
assay_endpoint = "TGI"
obs_value = "38.2 µM"

[[record]]
compound = "C1=CCCC=CCC1.C[PH+](C)C.C[PH+](C)C.C[PH+](C)C.[Cl-].[Ir]"
target = "NCI-H522 lung"
assay_endpoint = "TGI"
obs_value = "60.1 µM"

[[record]]
compound = "O=C(Nc1nn(C(=O)c2cccnc2)c(=O)s1)c1ccc(Cl)cc1"
target = "NCI-H522 lung"
assay_endpoint = "TGI"
obs_value = "51.7 µM"

[[record]]
compound = "OC(CC(O)(C(F)(F)Cl)C(F)(F)Cl)c1ccccc1 (stereo unspecified)"
target = "NCI-H522 lung"
assay_endpoint = "TGI"
obs_value = "> 10 µM"

[[record]]
compound = "C/C=C(\\C)C(=O)OC1/C=C(\\C)CC/C=C(\\C)CC2OC(=O)C(C)(OC(C)=O)C12 (stereo unspecified)"
target = "NCI-H522 lung"
assay_endpoint = "TGI"
obs_value = "> 100 µM"


*Q* Tell us which TGI value is on record for C[CH2][Sn]([CH2]C)([O]C(=O)c1ccc(F)cc1)[O]C(=O)c1ccc(F)cc1
*A* 4.48 µM

*Q* Tell us which TGI value is on record for COc1cc(/C=N/N=C(\N)NO)c([N+](=O)[O-])cc1OC
*A* 34.4 µM

*Q* Tell us which TGI value is on record for CCN(CC)C(=S)N/N=C(/c1ccccc1)c1ccccn1
*A* > 100 µM

*Q* Tell us which TGI value is on record for CC1(C)N=C(N)N=C(N)N1c1cccc(Cl)c1
*A* > 100 µM

*Q* Tell us which TGI value is on record for C[C@@H]1CC[C@@]2(NC1)O[C@H]1C[C@H]3[C@@H]4CC[C@H]5C[C@@H](O)CC[C@]5(C)[C@H]4CC[C@]3(C)[C@H]1[C@@H]2C
*A* > 100 µM

*Q* Tell us which TGI value is on record for O=C1N=C(Nc2nc(-c3csc(NC4=NC(=O)/C(=C\c5ccccc5)S4)n3)cs2)S/C1=C/c1ccccc1
*A* > 50 µM

###

test system: NCI-H226 lung; experiment: NCI tumour cell line growth inhibition, 48 h
ASSAY_ENDPOINT: TGI

[[record]]
structure_smiles = "CC(=O)[CH-]C(=O)c1ccccc1.CC(=O)[CH-]C(=O)c1ccccc1.[O-]c1ccc2c(c1)OCO2.[O-]c1ccc2c(c1)OCO2.[Ti+4]"
obs_value = "85 µM"

[[record]]
structure_smiles = "N#CC1=C(N)NC(=O)NC12Nc1ccccc1N2"
obs_value = "> 100 µM"


# next compound below
*Q* Tell us which TGI value is on record for CCOC(=O)/C=C/CCC(C)(C)COC(C)=O
*A* > 10 µM

###

# TGI per record follows
test system: DU-145 prostate; test: NCI tumour cell line growth inhibition, 48 h
Return type: number; implicit unit µM.

The following compounds have reported results that may help.
[[record]]
compound = "CCOC(=O)C1=C(C)NC(c2ccco2)=C(C#N)C1c1cccc([N+](=O)[O-])c1 (configuration not stated)"
target = "DU-145 prostate"
unit_name = "µM"
obs_value = 4.02

[[record]]
compound = "COC(=O)[C@H](Cc1cn(C)cn1)NC(=O)[C@H](Cc1ccccc1)NC(=O)Nc1cc(C(F)(F)F)cc(C(F)(F)F)c1"
target = "DU-145 prostate"
unit_name = "µM"
obs_value = 27

[[record]]
compound = "CC(C)(C)/C(O)=C\\c1nc2cc(F)c(F)cc2[nH]c1=O"
target = "DU-145 prostate"
unit_name = "µM"
obs_value = 57


# next compound below
*Q* Look up and report TGI, with DU-145 prostate as system, for CSc1nc(Cl)c2c(n1)Sc1nc3ccccc3n1C2O (configuration not stated)
*A* 41.9

Ref: PubChem BioAssay (NCI)
